Recorded values, source ChEMBL document CHEMBL4513146.

Could you please report measured Inhibition for the items listed next?
System: Cryptococcus neoformans
Conditions: Concentration 32 ug.mL-1; ASSAY_TEST Inhibition of Fungal Growth; detection method Resazurin; Absorption (OD600-OD570); plate type 384well; NBS; CORNING #3640
Description: Antifungal activity against Cryptococcus neoformans H99 ATCC 208821 (CO-ADD:FG_002); MIC in YNB media using NBS plates, by Resazurin OD(600-570)
Potency and affinity values are given separately.
Give bare numbers, in %.

Worked cases, answers included:
- COMPOUND SMILES: "COc1cccc(Sc2nc3ccccc3n3c(=O)n(CC(=O)Nc4c(C)cc(C)cc4C)nc23)c1"
  TARGET SYSTEM: "Cryptococcus neoformans"
  Inhibition (%): -17.68
- COMPOUND SMILES: "CCc1ccc(N(Cc2ccc(F)cc2)S(=O)(=O)c2cccn3c(CC)nnc23)cc1"
  TARGET SYSTEM: "Cryptococcus neoformans"
  Inhibition (%): -7.64
- COMPOUND SMILES: "COc1ccc(NC(=O)Cn2nc3c4cc(-c5ccc(C)c(C)c5)nn4ccn3c2=O)cc1Cl"
  TARGET SYSTEM: "Cryptococcus neoformans"
  Inhibition (%): -7.3
- COMPOUND SMILES: "COc1ccc(N2CCN(C(=O)Cn3nc4c(Oc5ccccc5)nccn4c3=O)CC2)cc1"
  TARGET SYSTEM: "Cryptococcus neoformans"
  Inhibition (%): -7.66
- COMPOUND SMILES: "Cc1ccccc1Cn1nc2ccc(-c3ccccc3)nn2c1=O"
  TARGET SYSTEM: "Cryptococcus neoformans"
  Inhibition (%): -8.99

Go through the items and report each one's Inhibition.
1. COc1ccc(-c2cc3c4nnc(SCC(=O)Nc5ccc(C#N)cc5)n4ccn3n2)cc1
2. COc1ccc(-c2cc3c4nnc(SCC(=O)Nc5cccc(C#N)c5)n4ccn3n2)cc1

Result:
[-17.71, -16.67]

Go through the items and report each one's Inhibition.
1. COc1cc(NC(=O)CSc2nnc3c(=O)n(-c4ccc(C)c(C)c4)ccn23)cc(OC)c1
2. COc1cccc(-n2ccn3c(SCC(=O)c4cccc(Cl)c4)nnc3c2=O)c1

Result:
-9.37
-6.56

====

System: Candida albicans
Details: Concentration 32 ug.mL-1; ASSAY_TEST Inhibition of Fungal Growth; detection method Absorption (OD530)
Description: Antifungal activity against Candida albicans ATCC 90028 (CO-ADD:FG_001); MIC in YNB media using NBS plates, by OD630
Measured potencies and affinities stand elsewhere.
READOUT: Inhibition (%)
Answers are plain numbers, in %.

- COMPOUND SMILES: "CC(C)(C)Sc1ccc2nn(CC(=O)NCc3ccc(Cl)cc3)c(=O)n2n1"
  UNIT ABBREV: "%"
  EXPERIMENTAL RESULT: 0.88
- COMPOUND SMILES: "Cc1ccc(N(Cc2cccc(C)c2)S(=O)(=O)c2cccn3c(C)nnc23)cc1"
  UNIT ABBREV: "%"
  EXPERIMENTAL RESULT: 4.46
- COMPOUND SMILES: "O=C(Cn1nc2ccc(-c3ccc(Cl)cc3)nn2c1=O)N1CCN(c2ccccc2F)CC1"
  UNIT ABBREV: "%"
  EXPERIMENTAL RESULT: 2.81

Go through the items and report each one's Inhibition.
1. CCCCOc1ccc(-c2cc3c4nnc(SCC(=O)Nc5ccc(F)cc5)n4ccn3n2)cc1
2. COc1cccc(NC(=O)Cn2nc3ccc(-c4ccc(C)c(C)c4)nn3c2=O)c1
3. CC(C)c1ccc(N(Cc2cc(F)cc(F)c2)S(=O)(=O)c2cccn3cnnc23)cc1
4. Cc1ccc(-c2ccc3nn(CC(=O)Nc4ccc(Cl)cc4)c(=O)n3n2)cc1C
5. CCCNC(=O)Cn1nc2cc(C)nc(Nc3cc(C)cc(C)c3)n2c1=O
6. O=C(Cn1nc2ccc(-c3ccccc3)nn2c1=O)Nc1ccc(F)cc1
7. COc1cccc(-n2ccn3c(SCC(=O)c4cc(C)c(C)cc4C)nnc3c2=O)c1

Result:
[-1.37, 8.09, 0.58, 0.13, 5.03, 0.88, 2.17]
